- Test system: Aspergillus flavus
- protocol.notes: Antimicrobial activity against Aspergillus flavus MTCC 1973 at 750 ug/ml after 72 hrs by cup plate method
- Assay type: functional
- reported.conditions: MTCC 1973, 72 h, read-out: IZ
assay.metric: zone of inhibition at 750 µg/mL (mm)
Express the result in mm but write the number alone.

Use these answered entries as a reference point.
INSERT INTO results (compound, assay_metric, unit_string, experimental_value) VALUES
  ('Cc1ccc2[nH]c(-c3ccccc3)c(C3C=C(c4ccccc4)OC(N)=C3C#N)c2c1 (configuration not stated)', 'zone of inhibition at 750 µg/mL', 'mm', 2),
  ('Cc1ccc(C2=CC(c3c(-c4ccccc4)[nH]c4ccc(Cl)cc34)c3c(nc4oc(=O)c(C#N)c(N)c4c3N)O2)cc1 (configuration not stated)', 'zone of inhibition at 750 µg/mL', 'mm', 5),
  ('Cc1ccc(C2=CC(c3c(-c4ccccc4)[nH]c4ccc(C)cc34)c3c(N)n[nH]c3O2)cc1 (configuration not stated)', 'zone of inhibition at 750 µg/mL', 'mm', 4),
  ('Nc1nc(=S)[nH]c2c1C(c1c(-c3ccccc3)[nH]c3ccc(Cl)cc13)C=C(c1ccc(Cl)cc1)O2 (configuration not stated)', 'zone of inhibition at 750 µg/mL', 'mm', 4),
  ('Cc1ccc2[nH]c(-c3ccccc3)c(C3C=C(c4ccccc4)Oc4nc5oc(=O)c(C#N)c(N)c5c(N)c43)c2c1 (configuration not stated)', 'zone of inhibition at 750 µg/mL', 'mm', 0);

Dear colleague, I am looking for the recorded zone of inhibition at 750 µg/mL of the following compound: Cc1ccc2[nH]c(-c3ccccc3)c(C3C=C(c4ccccc4)Oc4[nH]c(=O)nc(N)c43)c2c1 (configuration not stated)
8

Dear colleague, I am looking for the recorded zone of inhibition at 750 µg/mL of the following compound: Nc1nc(=S)[nH]c2c1C(c1c(-c3ccccc3)[nH]c3ccc(Cl)cc13)C=C(c1ccccc1)O2 (configuration not stated)
8

Dear colleague, I am looking for the recorded zone of inhibition at 750 µg/mL of the following compound: O=c1[nH]cnc2c1C(c1c(-c3ccccc3)[nH]c3ccc(Cl)cc13)C=C(c1ccccc1)O2 (configuration not stated)
12

Dear colleague, I am looking for the recorded zone of inhibition at 750 µg/mL of the following compound: Cc1ccc(C2=CC(c3c(-c4ccccc4)[nH]c4ccc(C)cc34)C(C#N)=C(N)O2)cc1 (configuration not stated)
0

Dear colleague, I am looking for the recorded zone of inhibition at 750 µg/mL of the following compound: Cc1ccc2[nH]c(-c3ccccc3)c(C3C=C(c4ccc(Cl)cc4)Oc4[nH]c(=O)nc(N)c43)c2c1 (configuration not stated)
5

Dear colleague, I am looking for the recorded zone of inhibition at 750 µg/mL of the following compound: Nc1n[nH]c2c1C(c1c(-c3ccccc3)[nH]c3ccccc13)C=C(c1ccc(Cl)cc1)O2 (configuration not stated)
9

Dear colleague, I am looking for the recorded zone of inhibition at 750 µg/mL of the following compound: Nc1n[nH]c2c1C(c1c(-c3ccccc3)[nH]c3ccc(Cl)cc13)C=C(c1ccc(Cl)cc1)O2 (configuration not stated)
9

Dear colleague, I am looking for the recorded zone of inhibition at 750 µg/mL of the following compound: Cc1ccc(C2=CC(c3c(-c4ccccc4)[nH]c4ccc(Cl)cc34)c3c(nc[nH]c3=O)O2)cc1 (configuration not stated)
6

Dear colleague, I am looking for the recorded zone of inhibition at 750 µg/mL of the following compound: `OC(Cn1cncn1)(Cn1cncn1)c1ccc(F)cc1F`
13

Dear colleague, I am looking for the recorded zone of inhibition at 750 µg/mL of the following compound: N#Cc1c(N)c2c(N)c3c(nc2oc1=O)OC(c1ccccc1)=CC3c1c(-c2ccccc2)[nH]c2ccccc12 (configuration not stated)
3

Dear colleague, I am looking for the recorded zone of inhibition at 750 µg/mL of the following compound: N#CC1=C(N)OC(c2ccc(Cl)cc2)=CC1c1c(-c2ccccc2)[nH]c2ccc(Cl)cc12 (configuration not stated)
12

Dear colleague, I am looking for the recorded zone of inhibition at 750 µg/mL of the following compound: Cc1ccc(C2=CC(c3c(-c4ccccc4)[nH]c4ccccc34)c3c(nc[nH]c3=O)O2)cc1 (configuration not stated)
3

###

- System: Aspergillus oryzae
- protocol.notes: Antimicrobial activity against Aspergillus oryzae MTCC 3567 at 1000 ug/ml after 72 hrs by cup plate method
- Format: functional
- reported.conditions: MTCC 3567, 72 h, read-out: IZ
// label = criterion met if zone of inhibition at 1000 µg/mL is not less than 9 mm, otherwise criterion not met

INSERT INTO results (compound, cat) VALUES
  ('N#CC1=C(N)OC(c2ccccc2)=CC1c1c(-c2ccccc2)[nH]c2ccccc12 (configuration not stated)', 'criterion not met'),
  ('Cc1ccc(C2=CC(c3c(-c4ccccc4)[nH]c4ccc(C)cc34)c3c(nc[nH]c3=O)O2)cc1 (configuration not stated)', 'criterion not met'),
  ('N#CC1=C(N)OC(c2ccccc2)=CC1c1c(-c2ccccc2)[nH]c2ccc(Cl)cc12 (configuration not stated)', 'criterion not met'),
  ('Nc1nc(=S)[nH]c2c1C(c1c(-c3ccccc3)[nH]c3ccc(Cl)cc13)C=C(c1ccc(Cl)cc1)O2 (configuration not stated)', 'criterion not met'),
  ('Cc1ccc2[nH]c(-c3ccccc3)c(C3C=C(c4ccccc4)Oc4[nH]c(=S)nc(N)c43)c2c1 (configuration not stated)', 'criterion not met'),
  ('Cc1ccc(C2=CC(c3c(-c4ccccc4)[nH]c4ccc(Cl)cc34)c3c(nc[nH]c3=O)O2)cc1 (configuration not stated)', 'criterion met');

Reported zone of inhibition at 1000 µg/mL at or above 9 mm? Cc1ccc(C2=CC(c3c(-c4ccccc4)[nH]c4ccc(C)cc34)c3c(N)nc(=S)[nH]c3O2)cc1 (configuration not stated)
criterion not met

Reported zone of inhibition at 1000 µg/mL at or above 9 mm? Cc1ccc(C2=CC(c3c(-c4ccccc4)[nH]c4ccccc34)C(C#N)=C(N)O2)cc1 (configuration not stated)
criterion not met

Reported zone of inhibition at 1000 µg/mL at or above 9 mm? Cc1ccc(C2=CC(c3c(-c4ccccc4)[nH]c4ccc(Cl)cc34)c3c(nc4oc(=O)c(C#N)c(N)c4c3N)O2)cc1 (configuration not stated)
criterion met

Reported zone of inhibition at 1000 µg/mL at or above 9 mm? Cc1ccc2[nH]c(-c3ccccc3)c(C3C=C(c4ccc(Cl)cc4)Oc4[nH]c(=O)nc(N)c43)c2c1 (configuration not stated)
criterion not met

Reported zone of inhibition at 1000 µg/mL at or above 9 mm? N#Cc1c(N)c2c(N)c3c(nc2oc1=O)OC(c1ccc(Cl)cc1)=CC3c1c(-c2ccccc2)[nH]c2ccc(Cl)cc12 (configuration not stated)
criterion not met

Reported zone of inhibition at 1000 µg/mL at or above 9 mm? Cc1ccc(C2=CC(c3c(-c4ccccc4)[nH]c4ccccc34)c3c(N)nc(=O)[nH]c3O2)cc1 (configuration not stated)
criterion met

###

- Test system: Aspergillus terreus
- protocol.notes: Antimicrobial activity against Aspergillus terreus MTCC 1782 at 500 ug/ml after 72 hrs by cup plate method
- Assay type: functional
- reported.conditions: MTCC 1782, 72 h, read-out: IZ
Recorded measurements of zone of inhibition at 500 µg/mL, one per entry
Express the result in mm but write the number alone.

Use these answered entries as a reference point.
INSERT INTO measurements (compound, unit_string, experimental_value) VALUES
  ('Cc1ccc2[nH]c(-c3ccccc3)c(C3C=C(c4ccccc4)Oc4nc5oc(=O)c(C#N)c(N)c5c(N)c43)c2c1 (stereo not given)', 'mm', 9),
  ('Nc1n[nH]c2c1C(c1c(-c3ccccc3)[nH]c3ccccc13)C=C(c1ccccc1)O2 (stereo not given)', 'mm', 5),
  ('O=c1[nH]cnc2c1C(c1c(-c3ccccc3)[nH]c3ccc(Cl)cc13)C=C(c1ccc(Cl)cc1)O2 (stereo not given)', 'mm', 5),
  ('Nc1n[nH]c2c1C(c1c(-c3ccccc3)[nH]c3ccc(Cl)cc13)C=C(c1ccccc1)O2 (stereo not given)', 'mm', 2),
  ('Nc1nc(=O)[nH]c2c1C(c1c(-c3ccccc3)[nH]c3ccc(Cl)cc13)C=C(c1ccccc1)O2 (stereo not given)', 'mm', 3),
  ('Cc1ccc(C2=CC(c3c(-c4ccccc4)[nH]c4ccc(Cl)cc34)c3c(N)n[nH]c3O2)cc1 (stereo not given)', 'mm', 5);

Consider the record given below.
Dear colleague, I am looking for the recorded zone of inhibition at 500 µg/mL of the following compound: Nc1nc(=O)[nH]c2c1C(c1c(-c3ccccc3)[nH]c3ccc(Cl)cc13)C=C(c1ccc(Cl)cc1)O2 (stereo not given)
9

###

- Tested on: Klebsiella pneumoniae
- protocol.notes: Antimicrobial activity against Klebsiella pneumoniae NCTC 13368 at 750 ug/ml after 24 hrs by cup plate method
- Format: functional
- reported.conditions: NCTC 13368, 24 h, read-out: IZ
// label = YES if zone of inhibition at 750 µg/mL is not less than 6 mm, otherwise NO

INSERT INTO measurements (compound, target_system, cat) VALUES
  ('Cc1ccc2[nH]c(-c3ccccc3)c(C3C=C(c4ccc(Cl)cc4)Oc4nc5oc(=O)c(C#N)c(N)c5c(N)c43)c2c1 (stereo not drawn)', 'Klebsiella pneumoniae', 'YES');

Reported zone of inhibition at 750 µg/mL at or above 6 mm? Cc1ccc(C2=CC(c3c(-c4ccccc4)[nH]c4ccccc34)c3c(N)nc(=S)[nH]c3O2)cc1 (stereo not drawn)
YES

Reported zone of inhibition at 750 µg/mL at or above 6 mm? Cc1ccc(C2=CC(c3c(-c4ccccc4)[nH]c4ccc(C)cc34)c3c(nc[nH]c3=O)O2)cc1 (stereo not drawn)
YES

Reported zone of inhibition at 750 µg/mL at or above 6 mm? O=c1[nH]cnc2c1C(c1c(-c3ccccc3)[nH]c3ccccc13)C=C(c1ccc(Cl)cc1)O2 (stereo not drawn)
YES

Reported zone of inhibition at 750 µg/mL at or above 6 mm? Cc1ccc2[nH]c(-c3ccccc3)c(C3C=C(c4ccccc4)OC(N)=C3C#N)c2c1 (stereo not drawn)
NO

Reported zone of inhibition at 750 µg/mL at or above 6 mm? Cc1ccc(C2=CC(c3c(-c4ccccc4)[nH]c4ccc(Cl)cc34)c3c(nc4oc(=O)c(C#N)c(N)c4c3N)O2)cc1 (stereo not drawn)
YES

Reported zone of inhibition at 750 µg/mL at or above 6 mm? Cc1ccc(C2=CC(c3c(-c4ccccc4)[nH]c4ccccc34)c3c(N)n[nH]c3O2)cc1 (stereo not drawn)
NO
